experiment: Brain to plasma partition coefficient in Sprague-Dawley rat at 0.20 to 0.25 mg/kg, iv administered through cassette dosing after 0.25 hrs; type: ADME, organism-based; conditions: Sprague-Dawley, brain and plasma
measurement_kind: Kp at 0.25 h

Example results:
Cn1cc(-c2ccc(CN3Cc4ncccc4C3=O)c(F)c2)cn1 = 0.3
Cn1cc2c(-c3cc(F)c(Cn4cnc5cnccc5c4=O)c(F)c3)cccc2n1 = 0.77
Cn1cc2cc(-c3cc(F)c(CN4CCn5nccc5C4=O)c(F)c3)ccc2n1 = 0.4
O=c1c2ccncc2ncn1Cc1c(F)cc(-c2ccc3cnccc3c2)cc1F = 3.1
Cn1cc2c(-c3cc(F)c(Cn4c(=O)cnc5ccccc54)c(F)c3)cccc2n1 = 2.16
Cn1cc2c(-c3cc(F)c(CN4CCc5ncccc5C4=O)c(F)c3)cccc2n1 = 0.52
Cn1cc2c(-c3cc(F)c(Cn4cnc5ccccc5c4=O)c(F)c3)cccc2n1 = 0.79

(1) Cn1cc2cc(-c3cc(F)c(Cn4c(=O)cnc5ncccc54)c(F)c3)ccc2n1
(2) Cn1cc2c(-c3cc(F)c(CN4C=CC5=NCCN5C4=O)c(F)c3)cccc2n1
Q: Higher Kp at 0.25 h: 1 or 2 ? To answer, give the label that identifies your chosen option.
A: 1
(1: 1.64, 2: 0.35)
